These data points were gathered from PubChem BioAssay AID602252.

Would you mind telling me the reported inhibition of each entry?
- system-name: Golgi-associated PDZ and coiled-coil motif-containing protein (Homo sapiens) (UniProt Q9HD26)
- protocol-summary: untagged CAL PDZ binding inhibitors, primary screen, biochemical, fluorescence polarization, HTS (AID 602252);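 note: 0% = DMSO neutral control and 100% = excess unlabeled competitor peptide PRC23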
- measurement-setup: purified CAL PDZ, TMR-peptide fluorescence polarization, 1 h; at 24.9 µM; hits give high values
The whole screen tested about 300,000 compounds, of which about 2,700 (0.9%) were called active. For the sample, actives were picked, then their nearest neighbours and some compounds at random.
Could you give me the number in %? Just the number is fine.

Q) Can you look up the measured inhibition of COc1ccc(C)cc1NC(=O)CN1c2cccc3cccc(c23)S1(=O)=O for me?
A) -0.836

Q) Value lookup for inhibition; key = COc1ccc(CC(=O)N[C@@H]2c3cc(OC)c(OC)cc3C[C@H]2OCc2ccccc2)cc1
A) -0.172

Q) Would you mind telling me what inhibition value was observed for Cc1nn(-c2ccc(F)cc2)c(Cl)c1/C=C(/CCC(=O)O)c1nc2ccccc2s1 ?
A) -3.19

Q) inhibition for CN(C)S(=O)(=O)c1cccc(NC(=S)NCc2ccc3c(c2)OCO3)c1 ?
A) -4.92

Q) Please report the recorded inhibition for Oc1[nH]c2ccccc2c1N=Nc1c(F)c(F)c(F)c(F)c1F .
A) -3.27

Q) Quick check: inhibition of Cc1cccc(C)c1NC(=O)CNC(=O)C1CCCC1 ?
A) -2.92

Q) Recorded inhibition for CCNC(=S)Nc1cccc(Cl)c1C , please?
A) -2.42
